Reported activation at 3 µM values follow for various compounds
TARGET_ENTITY: GlunN1/GluN2A glutamate receptors (Homo sapiens, UniProt Q05586+Q12879)
Construct: expressed in transfected cells
Sequence (Q12879 23-1464, other chains not shown): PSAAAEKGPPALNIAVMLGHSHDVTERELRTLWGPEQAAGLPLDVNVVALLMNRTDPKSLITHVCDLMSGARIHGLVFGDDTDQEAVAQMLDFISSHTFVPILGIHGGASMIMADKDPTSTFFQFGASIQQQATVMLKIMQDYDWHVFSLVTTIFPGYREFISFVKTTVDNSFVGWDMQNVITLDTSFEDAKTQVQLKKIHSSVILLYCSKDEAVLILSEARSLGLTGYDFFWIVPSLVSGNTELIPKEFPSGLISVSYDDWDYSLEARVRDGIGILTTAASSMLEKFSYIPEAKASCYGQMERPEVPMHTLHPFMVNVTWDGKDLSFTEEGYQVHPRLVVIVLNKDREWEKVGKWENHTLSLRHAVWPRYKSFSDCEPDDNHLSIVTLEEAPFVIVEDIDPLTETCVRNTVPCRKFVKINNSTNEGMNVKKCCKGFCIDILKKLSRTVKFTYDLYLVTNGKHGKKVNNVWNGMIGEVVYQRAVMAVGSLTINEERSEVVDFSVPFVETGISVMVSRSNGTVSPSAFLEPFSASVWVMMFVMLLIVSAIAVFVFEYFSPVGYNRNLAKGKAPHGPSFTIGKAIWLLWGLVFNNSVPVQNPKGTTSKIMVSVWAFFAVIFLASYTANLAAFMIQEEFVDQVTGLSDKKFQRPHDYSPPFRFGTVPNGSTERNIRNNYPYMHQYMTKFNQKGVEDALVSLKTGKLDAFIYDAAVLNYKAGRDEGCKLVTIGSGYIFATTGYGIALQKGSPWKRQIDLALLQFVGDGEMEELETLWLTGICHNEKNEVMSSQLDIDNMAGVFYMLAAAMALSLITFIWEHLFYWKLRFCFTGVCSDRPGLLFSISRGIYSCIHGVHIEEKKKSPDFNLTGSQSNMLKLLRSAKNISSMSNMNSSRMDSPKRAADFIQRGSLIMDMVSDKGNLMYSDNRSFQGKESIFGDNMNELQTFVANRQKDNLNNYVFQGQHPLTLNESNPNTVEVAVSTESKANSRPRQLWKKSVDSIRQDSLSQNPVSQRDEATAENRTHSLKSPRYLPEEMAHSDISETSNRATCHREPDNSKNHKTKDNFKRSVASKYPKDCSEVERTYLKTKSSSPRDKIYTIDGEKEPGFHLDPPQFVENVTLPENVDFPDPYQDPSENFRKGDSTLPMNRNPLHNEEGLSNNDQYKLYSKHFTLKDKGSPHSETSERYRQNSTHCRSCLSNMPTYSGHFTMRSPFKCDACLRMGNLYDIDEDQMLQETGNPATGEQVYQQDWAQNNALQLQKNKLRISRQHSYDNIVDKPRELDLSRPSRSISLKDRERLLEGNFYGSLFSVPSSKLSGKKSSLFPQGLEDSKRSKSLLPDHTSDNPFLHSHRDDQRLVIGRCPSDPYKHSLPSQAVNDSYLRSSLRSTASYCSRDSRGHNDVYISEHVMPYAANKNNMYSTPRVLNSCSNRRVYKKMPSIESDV
ASSAY_TEXT: cell-based
RUN_CONDITIONS: 3 μM test article; HEK293 cells expressing human GRIN1/GRIN2A; co-application with EC20 L-glutamate and 30 μM glycine; read-out: GluN2A PCA IWB Ephys % potentiation at 3 μM

C[C@H](CCC1(O)CCOCC1)[C@H]1CC[C@H]2[C@@H]3CC[C@H]4C[C@@](C)(O)CC[C@]4(C)[C@H]3CC[C@]12C    > 150%
CC[C@]1(O)CC[C@@]2(C)C(=CC[C@H]3[C@@H]4CC[C@H]([C@H](C)CCC5(O)CCCOC5)[C@@]4(C)CC[C@@H]32)C1 (stereo partly drawn)    > 150%
CC[C@]1(O)CC[C@@]2(C)[C@@H](CC[C@@H]3[C@@H]2CC[C@]2(C)[C@@H]([C@H](C)CCC4(O)CCC(F)(F)CC4)CC[C@@H]32)C1    > 150%
CC[C@]1(O)CC[C@@]2(C)C(=CC[C@H]3[C@@H]4CC[C@H]([C@H](C)CCC5(O)CCC(F)(F)CC5)[C@@]4(C)CC[C@@H]32)C1    > 150%
C[C@H](CCC1(O)CCC(C)(C)CC1)[C@H]1CC[C@H]2[C@@H]3CC[C@H]4C[C@@](C)(O)CC[C@]4(C)[C@H]3CC[C@]12C    10 to 100%

Asked: Lab request: please report activation at 3 µM under test system GlunN1/GluN2A glutamate receptors (Homo sapiens, UniProt Q05586+Q12879) for C[C@H](CCC1(O)CCCOC1)[C@H]1CC[C@H]2[C@@H]3CC=C4C[C@@](C)(O)CC[C@]4(C)[C@H]3CC[C@]12C (stereo partly drawn)
Given back: > 150%

Asked: Lab request: please report activation at 3 µM under test system GlunN1/GluN2A glutamate receptors (Homo sapiens, UniProt Q05586+Q12879) for "CC[C@]1(O)CC[C@@]2(C)[C@@H](CC[C@@H]3[C@@H]2CC[C@]2(C)[C@@H]([C@H](C)CCC4(O)CCOCC4)CC[C@@H]32)C1"
Given back: > 150%

Asked: Lab request: please report activation at 3 µM under test system GlunN1/GluN2A glutamate receptors (Homo sapiens, UniProt Q05586+Q12879) for C[C@H](CCC1(O)CCOC1)[C@H]1CC[C@H]2[C@@H]3CC=C4C[C@@](C)(O)CC[C@]4(C)[C@H]3CC[C@]12C (stereo partly drawn)
Given back: > 150%

Asked: Lab request: please report activation at 3 µM under test system GlunN1/GluN2A glutamate receptors (Homo sapiens, UniProt Q05586+Q12879) for "C[C@H](CCC1(O)CCOCC1)[C@H]1CC[C@H]2[C@@H]3CC=C4C[C@@](C)(O)CC[C@]4(C)[C@H]3CC[C@]12C"
Given back: 100 to 150%

Asked: Lab request: please report activation at 3 µM under test system GlunN1/GluN2A glutamate receptors (Homo sapiens, UniProt Q05586+Q12879) for "C[C@H](CCC1(O)CCC1)[C@H]1CC[C@H]2[C@@H]3CC=C4C[C@@](C)(O)CC[C@]4(C)[C@H]3CC[C@]12C"
Given back: 100 to 150%

Asked: Lab request: please report activation at 3 µM under test system GlunN1/GluN2A glutamate receptors (Homo sapiens, UniProt Q05586+Q12879) for "C[C@H](CC[C@]1(O)CCOC1)[C@H]1CC[C@H]2[C@@H]3CC=C4C[C@@](C)(O)CC[C@]4(C)[C@H]3CC[C@]12C"
Given back: 100 to 150%

Asked: Lab request: please report activation at 3 µM under test system GlunN1/GluN2A glutamate receptors (Homo sapiens, UniProt Q05586+Q12879) for "C[C@H](CCC1(O)CCCCC1)[C@H]1CC[C@H]2[C@@H]3CC=C4C[C@@](C)(O)CC[C@]4(C)[C@H]3CC[C@]12C"
Given back: > 150%

Asked: Lab request: please report activation at 3 µM under test system GlunN1/GluN2A glutamate receptors (Homo sapiens, UniProt Q05586+Q12879) for "CC(=O)N1CCC(O)(CC[C@@H](C)[C@H]2CC[C@H]3[C@@H]4CC=C5C[C@@](C)(O)CC[C@]5(C)[C@H]4CC[C@]23C)CC1"
Given back: > 150%

Asked: Lab request: please report activation at 3 µM under test system GlunN1/GluN2A glutamate receptors (Homo sapiens, UniProt Q05586+Q12879) for "C[C@H](CCC1(O)CCC(F)(F)CC1)[C@H]1CC[C@H]2[C@@H]3CC=C4C[C@@](C)(O)CC[C@]4(C)[C@H]3CC[C@]12C"
Given back: > 150%

Asked: Lab request: please report activation at 3 µM under test system GlunN1/GluN2A glutamate receptors (Homo sapiens, UniProt Q05586+Q12879) for "C[C@H](CC[C@@]1(O)CCOC1)[C@H]1CC[C@H]2[C@@H]3CC=C4C[C@@](C)(O)CC[C@]4(C)[C@H]3CC[C@]12C"
Given back: > 150%

Asked: Lab request: please report activation at 3 µM under test system GlunN1/GluN2A glutamate receptors (Homo sapiens, UniProt Q05586+Q12879) for C[C@H](CCC1(O)CCCOC1)[C@H]1CC[C@H]2[C@@H]3CC[C@H]4C[C@@](C)(O)CC[C@]4(C)[C@H]3CC[C@]12C (stereo partly drawn)
Given back: > 150%

Asked: Lab request: please report activation at 3 µM under test system GlunN1/GluN2A glutamate receptors (Homo sapiens, UniProt Q05586+Q12879) for "CC[C@]1(O)CC[C@@]2(C)C(=CC[C@H]3[C@@H]4CC[C@H]([C@H](C)CCC5(O)CCOCC5)[C@@]4(C)CC[C@@H]32)C1"
Given back: > 150%

Asked: Lab request: please report activation at 3 µM under test system GlunN1/GluN2A glutamate receptors (Homo sapiens, UniProt Q05586+Q12879) for CC[C@]1(O)CC[C@@]2(C)[C@@H](CC[C@@H]3[C@@H]2CC[C@]2(C)[C@@H]([C@H](C)CCC4(O)CCCOC4)CC[C@@H]32)C1 (stereo partly drawn)
Given back: > 150%

Asked: Lab request: please report activation at 3 µM under test system GlunN1/GluN2A glutamate receptors (Homo sapiens, UniProt Q05586+Q12879) for "C[C@H](CCC1(O)CCN(C)CC1)[C@H]1CC[C@H]2[C@@H]3CC=C4C[C@@](C)(O)CC[C@]4(C)[C@H]3CC[C@]12C"
Given back: 10 to 100%
